Molecular target: IDH1 wt/IDH1 R132H heterodimer (Homo sapiens (Human), UniProt O75874, R132H)
Sequence (O75874 whole entry R132H): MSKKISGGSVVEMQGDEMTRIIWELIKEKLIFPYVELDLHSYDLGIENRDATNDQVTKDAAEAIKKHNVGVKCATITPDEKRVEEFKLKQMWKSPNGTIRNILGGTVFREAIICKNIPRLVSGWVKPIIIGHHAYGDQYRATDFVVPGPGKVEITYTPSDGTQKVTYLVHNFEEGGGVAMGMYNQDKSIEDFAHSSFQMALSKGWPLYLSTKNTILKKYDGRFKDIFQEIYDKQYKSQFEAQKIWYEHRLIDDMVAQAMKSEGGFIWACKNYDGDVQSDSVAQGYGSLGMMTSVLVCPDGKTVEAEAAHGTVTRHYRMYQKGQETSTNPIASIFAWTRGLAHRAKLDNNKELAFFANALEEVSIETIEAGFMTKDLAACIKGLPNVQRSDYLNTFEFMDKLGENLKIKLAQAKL
Sequence (O75874 whole entry, stated change not applied): as the sequence (O75874 whole entry R132H) above, with H132R counted along it
Assay: In vitro assay for IDH1m R132H inhibitors, IDH1 wt/IDH1 R132H heterodimer, NADPH depletion (diaphorase/resazurin)
Type: biochemical
Conditions: IDH1 wt/R132H heterodimer, NADPH/NADP, not saturated; read-out: IDH1 wt/R132H NADPH/NADP IC50 not saturated
pIC50: −log10 of the molar value.
For each of the compounds below, state its pIC50.

Noted for "CC(C)(O)CNc1nc(NC2CCC(F)(F)CC2)nc(-c2cccc(C(F)(F)F)n2)n1" : its pIC50 reads 6.00 to 7.00

The measured pIC50 associated with "Cn1cc(-c2nc(NC3CCC(F)(F)CC3)nc(NC3CCC(F)(F)CC3)n2)c(C(F)(F)F)n1" reads 6.00 to 7.00

pIC50 in this record for OC1CCCC1Nc1nc(NC2CCCC2O)nc(-c2cccc(Cl)n2)n1 (stereo not shown) : 6.00 to 7.00

# pIC50 of "CC(F)(F)c1cccc(-c2nc(NC3CCC(F)(F)CC3)nc(NC3CCC(F)(F)CC3)n2)n1" = > 7.30

Data origin, for the record: patent US10028961B2
